# Test system: RPMI-8226 leukemia
# test_method_notes: NCI-60 one-dose screen, 48 h
# study_conditions: 10 µM unless noted
The panel holds about 83,000 compounds, 20% with a hit somewhere; the sample as a whole holds those more often. The source made the active and inactive calls. How the source made its calls: active means growth percent below 10; inactive means the rest.
One label from this list, please: active, inactive

molecule: CCN1/C(=C/C(C)=C/c2sc3ccc4ccccc4c3[n+]2CC)Sc2ccc3ccccc3c21
system_name: RPMI-8226 leukemia
group_label: active

Continue with the molecule presented below.
Prompt: # lookup: test call for CCCCCCCCCCCC[N+]1(CCCCCCCCCCCC)CCCC(C)C1 (stereo not drawn)
Response: active

====

# Tested on: OVCAR-5 ovarian
# test_method_notes: NCI-60 one-dose screen, 48 h (100 = growth as untreated, 0 = no growth, -100 = all killed)
# study_conditions: 10 µM unless noted
This is part of a sample that, as a whole, favours compounds with a hit. Of some 83,000 tested, about 20% had one in any assay.
Threshold 60%: growth strictly smaller gives class 1, otherwise class 0.

molecule: COc1cc(OC)c(/C=C/c2c3ccccc3cc[n+]2C)c(OC)c1
group_label: class 1
--
molecule: CN(C)c1ccc(/C=C/c2nccc3ccccc23)cc1
group_label: class 0
--
molecule: c1csc(-c2[nH]nc3c2CCc2ccccc2-3)c1
group_label: class 1

Prompt: Please indicate whether the reported growth of O=C(c1ccccc1)C(O)C(Br)(CBr)c1ccccc1 (configuration not stated) is strictly below 60%.
Response: class 0

Prompt: Then this molecule: CCOC(=O)/C(=C\c1ccc2ccccc2c1)P(=O)(OCC)OCC
Response: class 1

Prompt: Then this molecule: Cc1onc(-c2ccccc2)c1C(=O)N/N=C/c1cc(Cl)cc(Cl)c1O
Response: class 1

Prompt: Then this molecule: CCCCCCCCCCCCCCCCCC1=NCCCN1CCO
Response: class 0

Prompt: Then this molecule: Nc1nc(N)c2cc(Sc3cccc(C(F)(F)F)c3)ccc2n1
Response: class 1

Prompt: Then this molecule: NCCCN(CCCN)CCCNCc1c2ccccc2c(CNCCCN(CCCN)CCCN)c2ccccc12
Response: class 0

====

# Tested on: CCRF-CEM leukemia
# test_method_notes: NCI-60 one-dose screen, 48 h
# study_conditions: 10 µM unless noted
The panel holds about 83,000 compounds, 20% with a hit somewhere; the sample as a whole holds those more often. The source made the active and inactive calls. Rule for the calls: active = growth percent below 10; inactive = the rest.
One label from this list, please: active, inactive

Use the examples below as a reference point.
molecule: COc1cccc2c1C(=O)c1c(O)c3c(c(O)c1C2=O)C[C@@](O)(C(=O)CO)C[C@@H]3OC1CC(OC(C)=O)C(OC(C)=O)C(C)O1 (stereo partly specified)
system_name: CCRF-CEM leukemia
group_label: active
//
molecule: CN(Cc1ccccc1)c1ccc(SC#N)cc1
system_name: CCRF-CEM leukemia
group_label: inactive
//
molecule: CCN(CC)CC(O)c1cc(-c2ccc(Cl)cc2)nc2cc(Cl)ccc12 (stereo unspecified)
system_name: CCRF-CEM leukemia
group_label: active

Prompt: # lookup: test call for O/N=C1\c2ccccc2-c2ccc(F)cc21
Response: inactive

Prompt: Then this molecule: CCCCCC/C=C1\CCC(CN2CCCC2)C1=O (stereo unspecified)
Response: inactive

Prompt: Then this molecule: C/C(=N/NC(N)=S)c1ccc(C)cc1
Response: inactive

====

Answer each item with its documented growth.
# Tested on: SR leukemia
# test_method_notes: NCI-60 one-dose screen, 48 h (100 = growth as untreated, 0 = no growth, -100 = all killed)
# study_conditions: 10 µM unless noted
Compounds without any hit were thinned out: in the full panel of roughly 83,000, 20% have a hit. The source made the active and inactive calls. Rule for the calls: active = growth percent below 10; inactive = the rest.

molecule: Oc1ccc2ccccc2c1N=Nc1nccs1
observation_type: growth
recorded_value: -10% (active)
//
molecule: Oc1ccccc1N=Cc1ccccc1
observation_type: growth
recorded_value: 79.2% (inactive)
//
molecule: CC[n+]1ccc(Nc2ccc(NC(=O)c3ccc(Nc4cc[n+](CC)c5ccc([N+](=O)[O-])cc45)cc3)cc2)cc1
observation_type: growth
recorded_value: 75.7% (inactive)
//
molecule: C[n+]1ccccc1C[n+]1ccccc1
observation_type: growth
recorded_value: 88.6% (inactive)
//
molecule: CC/C(=C(/CC)c1ccc(O)cc1)c1ccc(O)cc1
observation_type: growth
recorded_value: 21.1% (inactive)
//
molecule: NC(=S)Nc1ccc2c(c1)Cc1ccccc1-2
observation_type: growth
recorded_value: 84.9% (inactive)

Parameter requested: growth. Apply to each item below.
1. CN(C)CCN(C)CC(C)(C)C(=O)/C=C/c1ccc(Cl)c(Cl)c1
2. COc1cc([C@@H]2c3cc4c(cc3[C@H](OC3OC5COC(c6ccccc6)OC5C(O)C3O)[C@H]3COC(=O)[C@H]23)OCO4)cc(OC)c1OC (stereo partly drawn)

Response:
1: -25.9% [100 µM] (active); 2: -25.4% (active)

Parameter requested: growth. Apply to each item below.
1. O=C(c1ccccc1)N(CCCl)C(=O)N(CCCl)C(=O)c1ccccc1
2. CCOC(=O)/C(=C\c1ccc2ccccc2c1)P(=O)(OCC)OCC
3. Cc1cc(N/N=C/c2ccccn2)nc2ccccc12
4. O=C(Cc1ccccc1)C(F)(F)F
5. CCCCC(C=O)(C=C=C(C)C)CC (stereo not drawn)
6. CCOC(=O)NC(/C=C/c1ccccc1)NC(=O)OCC

Response:
94.4% (inactive)
-19.4% (active)
11.5% (inactive)
94.7% (inactive)
108% (inactive)
103% (inactive)

Parameter requested: growth. Apply to each item below.
1. Cc1cc(C)c([I+]c2c(C)cc(C)cc2C)c(C)c1
2. COc1ccc(C(Cn2ccnc2)Sc2ccc(Cl)c(Cl)c2)cc1 (stereo not drawn)

Response:
1: -49.1% (active); 2: 97.4% (inactive)

Parameter requested: growth. Apply to each item below.
1. OCCOSCCO
2. N#CC(I)CS(=O)(=O)c1ccccc1 (stereo not drawn)
3. O=[n+]1c2ccccc2n([O-])c2cc(Cl)ccc21
4. CN=C(N)N/N=C(\c1ccccc1)c1ccc(Br)cc1

Response:
["90.1% (inactive)", "109% (inactive)", "1.27% (active)", "-15.2% (active)"]
